These data points were gathered from patent US12240813B2.

Test system: rat liver microsomes
Experiment: Metabolic stability in rat liver microsomes (RLM)
Details: RLM; 5 min; Table 2, four test articles
Listed next: entries and their corresponding % Remaining of Initial, 5 min.

[
  {
    "Compound": "[2H]C([2H])([2H])N(C([2H])([2H])[2H])C([2H])([2H])C([2H])([2H])c1c[nH]c2ccccc12",
    "% Remaining of Initial, 5 min (%)": 72.5
  },
  {
    "Compound": "CN(C)CCc1c[nH]c2ccccc12 [DMT, reference compound]",
    "% Remaining of Initial, 5 min (%)": 65.2
  },
  {
    "Compound": "[2H]C([2H])(c1c[nH]c2ccccc12)C([2H])([2H])N(C)C",
    "% Remaining of Initial, 5 min (%)": 70.7
  },
  {
    "Compound": "[2H]C([2H])(Cc1c[nH]c2ccccc12)N(C)C [DMT-d2]",
    "% Remaining of Initial, 5 min (%)": 67.5
  }
]
